Tested on: RARb:RXRa (NR concentration 270 nM, RXRa partner concentration 90 nM)
Test: PBM binding z-score (relative to random genomic background probes); higher = stronger binding; sequences stand for … in GC…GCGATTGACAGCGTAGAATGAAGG
Given measured PBM binding z-score, output yes (1) if it is greater than or equal to 2 and no (0) if not.

1) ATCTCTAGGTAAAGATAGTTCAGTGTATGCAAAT    no (0)
2) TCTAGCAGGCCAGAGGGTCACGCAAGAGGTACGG    yes (1)
3) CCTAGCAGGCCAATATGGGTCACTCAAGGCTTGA    no (0)
4) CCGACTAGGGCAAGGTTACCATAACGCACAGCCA    no (0)
5) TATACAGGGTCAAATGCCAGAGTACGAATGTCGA    yes (1)
6) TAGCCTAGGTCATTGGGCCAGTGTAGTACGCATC    yes (1)
7) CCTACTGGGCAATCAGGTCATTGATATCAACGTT    no (0)
8) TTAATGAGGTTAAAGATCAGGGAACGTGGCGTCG    yes (1)
9) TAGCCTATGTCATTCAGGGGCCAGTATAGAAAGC    no (0)
10) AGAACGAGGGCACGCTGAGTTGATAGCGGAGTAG    yes (1)
11) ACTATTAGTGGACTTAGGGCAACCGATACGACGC    no (0)
12) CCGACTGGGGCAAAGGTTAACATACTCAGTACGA    yes (1)

====

Catalogue of PBM binding z-score readings, one per entry.
Tested on: THRa homodimer (NR concentration 90 nM)
Assay: PBM binding z-score (relative to random genomic background probes); higher = stronger binding; sequences stand for … in GC…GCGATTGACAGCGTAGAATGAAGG
READOUT LABEL: PBM binding z-score

1) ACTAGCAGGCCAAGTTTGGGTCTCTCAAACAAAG    -0.533
2) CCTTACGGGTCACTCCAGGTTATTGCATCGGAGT    0.878
3) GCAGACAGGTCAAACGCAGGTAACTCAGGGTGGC    -0.195
4) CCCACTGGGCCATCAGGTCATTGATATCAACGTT    3.16
5) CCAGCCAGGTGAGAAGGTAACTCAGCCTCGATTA    0.306
6) CCTAGCAGGCCAATCTGGCTCACTCAAGGCTTGA    -0.709
7) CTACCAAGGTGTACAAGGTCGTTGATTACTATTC    1.32
8) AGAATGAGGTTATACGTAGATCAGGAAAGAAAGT    0.219
9) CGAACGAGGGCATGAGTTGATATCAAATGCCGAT    -0.157
10) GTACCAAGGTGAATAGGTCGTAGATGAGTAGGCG    0.42
11) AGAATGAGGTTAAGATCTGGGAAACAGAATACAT    0.582
12) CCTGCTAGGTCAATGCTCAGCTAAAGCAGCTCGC    0.173

====

System: PPARg:RXRa (NR concentration 180 nM, RXRa partner concentration 90 nM)
Experiment: PBM binding z-score (relative to random genomic background probes); higher = stronger binding; sequences stand for … in GC…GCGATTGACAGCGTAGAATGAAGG
Class definitions on PBM binding z-score: low bracket = under 0.7, middle bracket = from 0.7 up to 4, high bracket = 4 and over

1) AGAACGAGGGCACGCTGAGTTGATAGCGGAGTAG    middle bracket
2) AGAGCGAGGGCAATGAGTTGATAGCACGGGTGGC    low bracket
3) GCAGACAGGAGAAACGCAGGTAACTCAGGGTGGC    low bracket
4) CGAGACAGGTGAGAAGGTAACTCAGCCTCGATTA    low bracket
5) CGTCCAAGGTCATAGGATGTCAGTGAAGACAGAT    high bracket
6) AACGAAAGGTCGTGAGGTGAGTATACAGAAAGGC    high bracket
7) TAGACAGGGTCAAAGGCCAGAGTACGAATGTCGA    high bracket
8) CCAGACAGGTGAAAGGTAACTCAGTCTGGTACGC    high bracket
9) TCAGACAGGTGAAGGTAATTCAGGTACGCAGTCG    middle bracket
10) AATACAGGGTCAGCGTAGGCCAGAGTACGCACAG    high bracket
11) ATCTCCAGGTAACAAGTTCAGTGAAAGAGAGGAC    middle bracket
12) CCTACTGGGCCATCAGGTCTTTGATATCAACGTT    middle bracket

====

Tested on: PPARa:RXRa (NR concentration 270 nM, RXRa partner concentration 90 nM)
Assay: PBM binding z-score (relative to random genomic background probes); higher = stronger binding; sequences stand for … in GC…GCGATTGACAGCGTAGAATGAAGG
READOUT LABEL: PBM binding z-score

1) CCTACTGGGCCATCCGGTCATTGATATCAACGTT    1.37
2) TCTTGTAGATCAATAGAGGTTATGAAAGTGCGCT    1.9
3) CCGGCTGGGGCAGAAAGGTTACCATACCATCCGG    1.61
4) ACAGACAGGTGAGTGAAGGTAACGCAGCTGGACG    0.197
5) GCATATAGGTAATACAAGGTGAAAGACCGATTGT    1.46
6) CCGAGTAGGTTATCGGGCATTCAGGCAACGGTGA    1.32
7) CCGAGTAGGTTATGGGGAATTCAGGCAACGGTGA    1.23
8) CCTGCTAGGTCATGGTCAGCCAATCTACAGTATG    3.49
9) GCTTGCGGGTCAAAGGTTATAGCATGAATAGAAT    7.24
10) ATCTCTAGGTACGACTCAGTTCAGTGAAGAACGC    0.0584
11) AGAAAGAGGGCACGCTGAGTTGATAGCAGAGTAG    2.59
12) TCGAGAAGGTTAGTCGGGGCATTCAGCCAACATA    1.32

====

Test system: FXR:RXRa (NR concentration 270 nM, RXRa partner concentration 90 nM)
Assay: PBM binding z-score (relative to random genomic background probes); higher = stronger binding; sequences stand for … in GC…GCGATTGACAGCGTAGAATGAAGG
Quick rule for you: PBM binding z-score at 2 or higher means condition met, lower means condition not met.

1) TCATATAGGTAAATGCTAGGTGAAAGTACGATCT    condition not met
2) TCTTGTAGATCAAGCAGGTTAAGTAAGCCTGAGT    condition not met
3) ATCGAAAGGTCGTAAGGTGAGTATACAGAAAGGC    condition met
4) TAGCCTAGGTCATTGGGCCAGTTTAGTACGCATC    condition met
5) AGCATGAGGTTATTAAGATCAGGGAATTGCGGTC    condition not met
6) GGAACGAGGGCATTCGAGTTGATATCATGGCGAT    condition not met

====

System: PPARg:RXRa 90nM:30nM, anti-RXR (NR concentration 90 nM, RXRa partner concentration 30 nM)
Assay: PBM binding z-score (relative to random genomic background probes); higher = stronger binding; sequences stand for … in GC…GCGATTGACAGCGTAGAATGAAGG
# cutoff 0.7 applies to PBM binding z-score; >= gives MET, < gives NOT MET

1. TCTTGTAGATCAGCAGCTTAAGAAAGCTGGCCAA    MET
2. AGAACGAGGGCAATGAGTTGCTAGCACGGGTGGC    NOT MET
3. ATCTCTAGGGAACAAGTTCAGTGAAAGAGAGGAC    MET
4. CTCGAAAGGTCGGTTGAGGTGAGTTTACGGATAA    NOT MET
5. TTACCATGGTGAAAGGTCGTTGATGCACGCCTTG    MET

====

System: PPARg:RXRa 30nM:10nM, anti-RXR (NR concentration 30 nM, RXRa partner concentration 10 nM)
Assay: PBM binding z-score (relative to random genomic background probes); higher = stronger binding; sequences stand for … in GC…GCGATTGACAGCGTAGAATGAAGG
Entries and their PBM binding z-score values follow.
READOUT LABEL: PBM binding z-score

1) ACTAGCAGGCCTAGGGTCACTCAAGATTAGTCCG    1.39
2) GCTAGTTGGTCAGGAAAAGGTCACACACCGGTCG    1.41
3) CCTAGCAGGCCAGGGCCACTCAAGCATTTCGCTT    -1.24
4) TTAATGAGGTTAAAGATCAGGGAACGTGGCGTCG    6.34
5) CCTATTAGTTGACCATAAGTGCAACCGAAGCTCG    0.581
6) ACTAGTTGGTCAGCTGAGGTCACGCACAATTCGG    0.707

====

Test system: PPARg:RXRa DBDmut IVT, anti-RXR (DBD mutation: RXRa K156A/R161A, NR concentration 270 nM, RXRa partner concentration 90 nM)
Assay: PBM binding z-score (relative to random genomic background probes); higher = stronger binding; sequences stand for … in GC…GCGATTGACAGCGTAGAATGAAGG
Note to self: class = bucket of PBM binding z-score, per LOW = under 1, MID = from 1 up to 4, HIGH = 4 and over

1. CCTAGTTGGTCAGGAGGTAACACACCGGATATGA    LOW
2. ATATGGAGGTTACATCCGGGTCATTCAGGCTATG    MID
3. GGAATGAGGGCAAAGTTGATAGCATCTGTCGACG    HIGH
4. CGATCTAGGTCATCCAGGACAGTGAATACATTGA    HIGH
5. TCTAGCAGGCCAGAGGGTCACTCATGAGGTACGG    LOW
6. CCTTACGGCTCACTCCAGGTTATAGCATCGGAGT    LOW
7. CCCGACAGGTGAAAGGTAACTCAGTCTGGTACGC    MID
8. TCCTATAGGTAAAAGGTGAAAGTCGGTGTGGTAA    MID
9. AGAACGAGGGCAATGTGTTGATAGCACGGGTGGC    MID
10. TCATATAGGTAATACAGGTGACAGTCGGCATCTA    HIGH
11. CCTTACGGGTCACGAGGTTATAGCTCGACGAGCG    MID
12. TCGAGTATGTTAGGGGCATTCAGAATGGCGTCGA    LOW
